assay: logP determination by HPLC on a reversed-phase column (C 18), EEC Directive 79/831 Annex V.A8; settings: HPLC reversed-phase C18, 40° C., 0.1% aqueous formic acid and acetonitrile, gradient 10% to 90% acetonitrile
experimental endpoint: LogP
Please respond with just the number, no unit label.

Past entries and their recorded results:
COCCNC(=O)Nc1cccc(CON=C(C2CCCCC2)n2nnnc2C)n1 [Compound 38]    2.78
Cc1nnnn1C(=NOCc1cccc(NC(=O)C(C)(C)C)n1)C1CCCCC1 [Compound 30]    3.96
Cc1ccc(C(=NOCc2nsc(N)n2)c2nnnn2C)cc1 [Compound 68]    2.07
Cc1nnnn1C(=NOCc1cccc(NC(=O)NCCc2ccc(F)cc2)n1)C1CC1 [Compound 44]    2.5
CCCCCC(=O)Nc1cccc(CON=C(CCc2ccccc2)n2nnnc2C)n1 [Compound 17]    3.84
Cc1nnnn1C(Cc1ccccc1)=NOCc1csc(NC(=O)C2CCCC2)n1 [Compound 11]    3.18
Cn1nnnc1C(=NOCc1nccc(N)n1)c1ccccc1 [Compound 77]    0.92
Cn1nnnc1C(=NOCc1cccc(NC(=O)C2CC2)n1)C1CCCCC1 [Compound 73]    3.2

Shifting focus to the molecule that follows.
What value of LogP has been recorded for this entry: CCCCCOC(=O)Nc1cccc(CON=C(C2CCCCC2)n2nnnc2C)n1 [Compound 29]
5

###

Catalogue of LogP readings, one per entry.
assay: logP determination by HPLC on a reversed-phase column (C 18), EEC Directive 79/831 Annex V.A8; conditions: HPLC reversed-phase C18, 40° C., 0.1% aqueous formic acid and acetonitrile, gradient 10% to 90% acetonitrile
Please respond with just the number, no unit label.

Past entries and their recorded results:
CCCCCC(=O)Nc1ccnc(CON=C(c2ccccc2)c2nnnn2C)n1 [Compound 78]    3.46
Cc1nnnn1C(Cc1ccccc1)=NOCc1csc(NC(=S)NCc2ccccc2)n1 [Compound 3]    3.64
Cn1nnnc1C(=NOCc1cccc(NC(=O)C(F)(F)F)n1)C1CCCCC1 [Compound 76]    3.69
Cc1nnnn1C(=NOCc1cccc(NC(=O)NC2CC2)n1)C1CC1 [Compound 46]    1.88
Cc1ccc(C(=NOCc2nsc(NC(=O)Cc3ccccc3)n2)c2nnnn2C)cc1 [Compound 69]    3.22
CC(C)CC(=O)Nc1ccnc(CON=C(c2ccccc2)c2nnnn2C)n1 [Compound 82]    3

What value of LogP has been recorded for this entry: CCCCCNC(=O)Nc1nc(CON=C(Cc2ccccc2)n2nnnc2C)cs1 [Compound 5]
3.18

What value of LogP has been recorded for this entry: CCCNC(=O)Nc1cccc(CON=C(C2CC2)n2nnnc2C)n1 [Compound 50]
2.09

What value of LogP has been recorded for this entry: Cc1nnnn1C(=NOCc1cccc(N)n1)C1CC1 [Compound 41]
0.87

What value of LogP has been recorded for this entry: CCCC(=O)Nc1nc(CON=C(Cc2ccccc2)n2nnnc2C)cs1 [Compound 2]
2.73

What value of LogP has been recorded for this entry: Cc1nnnn1C(Cc1ccccc1)=NOCc1csc(NC(=O)CCCc2ccccc2)n1 [Compound 9]
3.61

###

assay: logP determination by HPLC on a reversed-phase column (C 18), EEC Directive 79/831 Annex V.A8; conditions: HPLC reversed-phase C18, 40° C., 0.1% aqueous formic acid and acetonitrile, gradient 10% to 90% acetonitrile
Catalogue of LogP readings, one per entry.
Please respond with just the number, no unit label.

Cc1nnnn1C(Cc1ccccc1)=NOCc1csc(NC(=O)NC(C)(C)C)n1 [Compound 4]    2.91

What value of LogP has been recorded for this entry: Cc1nnnn1C(Cc1ccccc1)=NOCc1csc(NC(=O)C2CC2)n1 [Compound 1]
2.56

What value of LogP has been recorded for this entry: COc1ccc(C(=O)Nc2cccc(CON=C(C3CCCCC3)n3nnnc3C)n2)cc1 [Compound 24]
3.99

What value of LogP has been recorded for this entry: Cn1nnnc1C(=NOCc1nccc(NC(=O)C(C)(C)C)n1)c1ccccc1 [Compound 79]
3.06

What value of LogP has been recorded for this entry: Cn1nnnc1C(=NOCc1nccc(NC(=O)C2CC2)n1)c1ccccc1 [Compound 80]
2.5

What value of LogP has been recorded for this entry: CC(C)C(=O)Nc1ccnc(CON=C(c2ccccc2)c2nnnn2C)n1 [Compound 81]
2.68

What value of LogP has been recorded for this entry: COc1ccc(OC(=O)Nc2cccc(CON=C(C3CCCCC3)n3nnnc3C)n2)cc1 [Compound 26]
4.16

What value of LogP has been recorded for this entry: CCCCCC(=O)Nc1cccc(CON=C(c2nnnn2C)C2CCCCC2)n1 [Compound 71]
4.25

What value of LogP has been recorded for this entry: Cc1nnnn1C(=NOCc1cccc(NC(=O)C2CC2)n1)C1CC1 [Compound 48]
2.11

###

assay: logP determination by HPLC on a reversed-phase column (C 18), EEC Directive 79/831 Annex V.A8; settings: HPLC reversed-phase C18, 40° C., 0.1% aqueous formic acid and acetonitrile, gradient 10% to 90% acetonitrile
Please mark rule met if the recorded LogP is equal to or greater than 3, and rule not met if it falls below.

Example entries and their recorded answers appear below.
CCCC(=O)Nc1cccc(CON=C(C2CCCCC2)n2nnnc2C)n1    rule met
COc1ccc(CCNC(=O)Nc2cccc(CON=C(C3CC3)n3nnnc3C)n2)cc1    rule not met
CCCCCC(=O)Nc1nc(CON=C(Cc2ccccc2)n2nnnc2C)cs1    rule met

Okay, now this compound:
Does Cc1nnnn1C(Cc1ccccc1)=NOCc1csc(NC(=O)C(C)(C)C)n1 have a reported LogP of at least 3?
rule met
